Sourced from ChEMBL document CHEMBL1949664

# assay comment: AUC (0 to infinity) in Sprague-Dawley rat at 10 mg/kg, po
# Type: ADME, organism-based
# Set-up: time infinity, dose 10 mg/kg, route oral
# measurement parameters: plasma
measured property: AUC(0-inf) (ng·h/mL)
Numeric answer only, unit ng·h/mL assumed.

Exam item: Entry Cn1c2c(c3cc(S(=O)(=O)c4cccc(C(F)(F)F)c4)ccc31)C1CCC(C2)N1 (single isomer, unassigned; (+)) : reported AUC(0-inf) = ?
Marked response: 26700

###

# Test system: Liver microsomes
# assay comment: Stability in human liver microsomes assessed as compound remaining after 1 hr
# Type: ADME, Microsome
# measurement parameters: microsomes, 1 h
measured property: Stability (%)
Quick reminder: number only, in %, skip the unit.

Cn1c2c(c3cc(S(=O)(=O)c4cccc(C(F)(F)F)c4)ccc31)C1CCC(C2)N1 (single isomer, unassigned; (-)): 78

Exam item: // map Cn1c2c(c3cc(S(=O)(=O)c4csc5ccccc45)ccc31)C1CCC(C2)N1 (single isomer, unassigned; (-)) to recorded Stability (system: Liver microsomes)
Marked response: 52

Exam item: Then this molecule: Cn1c2c(c3cc(S(=O)(=O)c4cccc(C(F)(F)F)c4)ccc31)C1CCC(C2)N1 (single isomer, unassigned; (+))
Marked response: 100

Exam item: Check Cn1c2c(c3cc(S(=O)(=O)c4c[nH]c5ccccc45)ccc31)C1CCC(C2)N1 (single isomer, unassigned; (+)) too.
Marked response: 86

Exam item: Another molecule to check: Cn1c2c(c3cc(S(=O)(=O)c4cccc(Cl)c4)ccc31)C1CCC(C2)N1 (single isomer, unassigned; (+))
Marked response: 93

Exam item: Also check Cn1c2c(c3cc(S(=O)(=O)c4csc5ccccc45)ccc31)C1CCC(C2)N1 (single isomer, unassigned)
Marked response: 78

Exam item: Now this one: Cn1c2c(c3cc(S(=O)(=O)c4ccc5[nH]ccc5c4)ccc31)C1CCC(C2)N1 (single isomer, unassigned; (+))
Marked response: 99

Exam item: Ok, now Cn1c2c(c3cc(S(=O)(=O)n4ccc5ccccc54)ccc31)C1CCC(C2)N1 (single isomer, unassigned; (+))
Marked response: 96
